Activity values by entry
# Test system: Rattus norvegicus
# procedure details: Antihypertensive activity in spontaneously hypertensive Rattus norvegicus (rat) assessed as reduced systolic blood pressure at 1 mg/kg intragastrically administered
# Type: functional, Artery
# conditions: route intragastric
reported endpoint: Activity (mmHg)

>>> result_number("CCCCN(C)C(=O)/C=C/c1ccccc1C1C(C(=O)OCC)=C(C)NC(C)=C1C(=O)OCC")
27
>>> result_number("CCOC(=O)C1=C(C)NC(C)=C(C(=O)OCC)C1c1ccccc1/C=C/C(=O)NCC(C)C")
15
>>> result_number("CCOC(=O)C1=C(C)NC(C)=C(C(=O)OCC)C1c1ccccc1/C=C/C(=O)OC(C)(C)C")
50
>>> result_number("CCOC(=O)C1=C(C)NC(C)=C(C(=O)OCC)C1c1ccccc1/C=C/C(=O)N1CCCCC1")
22
>>> result_number("CCOC(=O)C1=C(C)NC(C)=C(C(=O)OCC)C1c1ccccc1/C=C/C(=O)N(C)C(C)(C)C")
46
>>> result_number("CCOC(=O)C1=C(C)NC(C)=C(C(=O)OCC)C1c1ccccc1/C=C/C(=O)NC(C)(C)C")
44
>>> result_number("CCOC(=O)C1=C(C)NC(C)=C(C(=O)OCC)C1c1ccccc1/C=C/C(=O)N(CC)CC")
33
